System: NCI-H748;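 further: growth inhibition of NCI-H748 cells, measured by a cell viability assay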
assayComment: cells
Format: functional, cell-based, Homo sapiens
measurementContext: Homo sapiens, NCI-H748
Description: SANGER: Inhibition of human NCI-H748 cell growth in a cell viability assay.
Where a SMILES comes first, the peptide text is derived from it. The star is where a group is joined. Cbz = O=C(OCc1ccccc1)*
measurementKind: IC50

These recorded examples may help you get a feel for the data.
C/C(=C\c1csc(C)n1)[C@@H]1C[C@@H]2O[C@]2(C)CCC[C@H](C)[C@H](O)[C@@H](C)C(=O)C(C)(C)[C@@H](O)CC(=O)O1: > 0.032 µM
COC(=O)[C@H](CCSC)NC(=O)c1ccc(NC[C@@H](N)CS)cc1-c1ccccc1: > 1.02 µM
OC[C@H](Cc1ccccc1)Nc1nc(Oc2ccc3c(c2)CCC3)nc2c1ncn2Cc1ccc(-c2ccccc2)cc1: > 10.2 µM
COc1ccc(N(C(=O)Oc2c(C)cccc2C)c2ccnc(Nc3ccc(N4CCN(C)CC4)cc3)n2)c(OC)c1: > 5.12 µM
Nc1ccccc1NC(=O)c1ccc(CNC(=O)OCc2cccnc2)cc1: 0.103 µM
CC(C)C[C@@H](C=O)NC(=O)[C@H](CC(C)C)NC(=O)[C@H](CC(C)C)NC(=O)OCc1ccccc1 [MG-132] (Cbz-Leu-Leu-Leu-aldehyde): > 1 µM
C[C@@H](Oc1cc(-c2cnn(C3CCNCC3)c2)cnc1N)c1c(Cl)ccc(F)c1Cl: > 2 µM

Switching to the query record.
Challenge: Request the reported IC50 associated with NC(=O)c1cccc(-c2cc(Nc3ccc(OC(F)(F)F)cc3)ncn2)c1
Response given: > 1.28 µM

###

System: NCI-H2029;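 further: Read-out is a viability assay on the cultured cells, and IC50 is the concentration that suppresses cell growth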
assayComment: cells
Assay type: functional, cell-based
measurementContext: Homo sapiens
Description: SANGER: Inhibition of human NCI-H2029 cell growth in a cell viability assay.
measurementKind: IC50

Challenge: What IC50 appears in the records for this molecule with NCI-H2029? O=C1NC(=O)c2c1c(-c1ccccc1Cl)cc1[nH]c3ccc(O)cc3c21
Response given: > 2000 nM

###

Please respond with reported pIC50 for every item in the list.
Test system: LAN-6;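 further: growth inhibition of LAN-6 cells, determined with a cell viability assay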
assayComment: cells
Type: functional, cell-based, Homo sapiens
measurementContext: Homo sapiens, LAN-6
Description: SANGER: Inhibition of human LAN-6 cell growth in a cell viability assay.
pIC50: −log10 of the molar value.

Worked set:
OC[C@H](Cc1ccccc1)Nc1nc(Oc2ccc3c(c2)CCC3)nc2c1ncn2Cc1ccc(-c2ccccc2)cc1: < 4.99
CC1(C)CCC(c2ccc(Cl)cc2)=C(CN2CCN(c3ccc(C(=O)NS(=O)(=O)c4ccc(N[C@H](CCN5CCOCC5)CSc5ccccc5)c(S(=O)(=O)C(F)(F)F)c4)cc3)CC2)C1 [NAVITOCLAX]: < 5.70
NC(=O)Nc1cc(-c2cccc(F)c2)sc1C(=O)N[C@H]1CCCNC1 [AZD-7762]: 5.97

Dear reader, for each entry below, please note its pIC50.
1. Cc1ccc(-n2nc(C(C)(C)C)cc2NC(=O)Nc2ccc(OCCN3CCOCC3)c3ccccc23)cc1 [DORAMAPIMOD]
2. NC(=O)c1cccc(-c2cc(Nc3ccc(OC(F)(F)F)cc3)ncn2)c1
3. NC(=O)c1ccc(N(C(N)=O)c2c(F)cccc2F)nc1-c1ccc(F)cc1F [VX-702]

Response given:
["< 5.00", "< 5.89", "< 5.70"]

Challenge: Bench note: what pIC50 did CN(C)CCOc1ccc(-c2nc(-c3ccncc3)c(-c3ccc4c(c3)CC/C4=N\O)[nH]2)cc1 [SB590885] show?
Response given: < 5.30

###

Tested on: NCI-H2405;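 further: growth inhibition of the human cell line, read out with a cell viability assay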
assayComment: cells
Assay type: functional, cell-based
measurementContext: Homo sapiens
Description: SANGER: Inhibition of human NCI-H2405 cell growth in a cell viability assay.
measurementKind: IC50

Solved entries:
Cc1ccc(C(=O)Nc2ccc(CN3CCN(C)CC3)c(C(F)(F)F)c2)cc1C#Cc1cnc2cccnn12: > 0.512 µM
CC1=C(/C=C/C(C)=C/C=C/C(C)=C/C(=O)O)C(C)(C)CCC1: > 10 µM
CN(C)CCOc1ccc(-c2nc(-c3ccncc3)c(-c3ccc4c(c3)CC/C4=N\O)[nH]2)cc1: > 5 µM

# context switch: different compound, same IC50
Challenge: Any idea what its IC50 is? The compound is O=C(NCCCNc1nc(Nc2cccc(NC(=O)N3CCCC3)c2)ncc1I)c1cccs1
Response given: 4.68 µM

###

System: LXF-289 cell line
assayComment: cells
Assay type: functional, cell-based
measurementContext: Homo sapiens
Description: SANGER: Inhibition of human LXF-289 cell growth in a cell viability assay.
For each of the molecules below, state its IC50.

Observe how each entry below is paired with its result.
CC1=C(/C=C/C(C)=C/C=C/C(C)=C/C(=O)O)C(C)(C)CCC1: > 10 µM
CS(=O)(=O)N1CCN(Cc2cc3nc(-c4cccc5[nH]ncc45)nc(N4CCOCC4)c3s2)CC1: 0.448 µM
C[C@@H](Oc1cc(-c2cnn(C3CCNCC3)c2)cnc1N)c1c(Cl)ccc(F)c1Cl: > 2 µM
Cc1cc(N2CCOCC2)cc2[nH]c(-c3c(NC[C@@H](O)c4cccc(Cl)c4)cc[nH]c3=O)nc12: 1.55 µM
O=S(=O)(O)c1ccc2cc(/N=N/c3cc(S(=O)(=O)O)c4cccnc4c3O)ccc2c1: > 16 µM

Take each entry in turn and give its IC50.
1. O=C(NOC[C@H](O)CO)c1ccc(F)c(F)c1Nc1ccc(I)cc1F
2. NC(=O)c1cccc(-c2cc(Nc3ccc(OC(F)(F)F)cc3)ncn2)c1
3. Cc1ccc(-n2nc(C(C)(C)C)cc2NC(=O)Nc2ccc(OCCN3CCOCC3)c3ccccc23)cc1

Response given:
["> 2 µM", "> 1.28 µM", "> 10 µM"]

###

Tested on: BE-13
assayComment: cells
Format: functional, cell-based, Homo sapiens
measurementContext: Homo sapiens, BE-13
Description: SANGER: Inhibition of human BE-13 cell growth in a cell viability assay.
Hi there, I'd appreciate the recorded IC50 for every entry that follows.

Observe how each entry below is paired with its result.
NC(=O)c1ccc(N(C(N)=O)c2c(F)cccc2F)nc1-c1ccc(F)cc1F: > 2 µM
NC(=O)Nc1cc(-c2cccc(F)c2)sc1C(=O)N[C@H]1CCCNC1: 0.201 µM

Next, consider the following compound.
Challenge: Recorded IC50 for CS(=O)(=O)N1CCN(Cc2cc3nc(-c4cccc5[nH]ncc45)nc(N4CCOCC4)c3s2)CC1 , please?
Response given: > 4 µM

###

Test system: CHP-126
assayComment: cells
Format: functional, cell-based, Homo sapiens
measurementContext: Homo sapiens, CHP-126
Description: SANGER: Inhibition of human CHP-126 cell growth in a cell viability assay.
Would you kindly list IC50 for each of these compounds?

Cc1cc(N2CCOCC2)cc2[nH]c(-c3c(NC[C@@H](O)c4cccc(Cl)c4)cc[nH]c3=O)nc12: > 5.12 µM
C[C@@H](Oc1cc(-c2cnn(C3CCNCC3)c2)cnc1N)c1c(Cl)ccc(F)c1Cl [CRIZOTINIB]: > 2 µM
C=CC(=O)N1CCCC(Nc2nc(Nc3ccc(N(C)C(=O)CC)cc3)nc3[nH]cnc23)C1 (stereo unspecified): > 10.2 µM

Hi there! I need IC50 for each item below, if you can.
1. Nc1ccccc1NC(=O)c1ccc(CNC(=O)OCc2cccnc2)cc1 [ENTINOSTAT]
2. O=S(=O)(O)c1ccc2cc(/N=N/c3cc(S(=O)(=O)O)c4cccnc4c3O)ccc2c1
3. CCCCCCCCCCCC1=C(O)C(=O)C=C(O)C1=O [EMBELIN]

Response given:
0.402 µM
> 16 µM
> 32 µM

###

Test system: BHT-101
assayComment: cells
Format: functional, cell-based
measurementContext: Homo sapiens
Description: SANGER: Inhibition of human BHT-101 cell growth in a cell viability assay.
measurementKind: pIC50
Answers are plain numbers, as −log10 of the molar value.

# batch: return pIC50 for each of the 2 molecules below
1. NC(=O)Nc1cc(-c2cccc(F)c2)sc1C(=O)N[C@H]1CCCNC1
2. CCCCCCCCCCCC1=C(O)C(=O)C=C(O)C1=O

Response given:
[5.94, 4.70]

###

For each of the compounds below, state its pIC50.
Tested on: NB17
assayComment: cells
Format: functional, cell-based, Homo sapiens
measurementContext: Homo sapiens, NB17
Description: SANGER: Inhibition of human NB17 cell growth in a cell viability assay.
pIC50: −log10 of the molar value.

As a guide, the following entries are already answered.
CS(=O)(=O)N1CCN(Cc2cc3nc(-c4cccc5[nH]ncc45)nc(N4CCOCC4)c3s2)CC1: < 5.40
Cc1ccc(NC(=O)c2ccc(CN3CCN(C)CC3)cc2)cc1Nc1nccc(-c2cccnc2)n1: < 5.70
COc1cc(N2CCC(N3CCN(C)CC3)CC2)ccc1Nc1ncc(Cl)c(Nc2ccccc2S(=O)(=O)C(C)C)n1: 6.00

Consider now this further compound.
Challenge: Entry under review: C[C@@H](Oc1cc(-c2cnn(C3CCNCC3)c2)cnc1N)c1c(Cl)ccc(F)c1Cl . Reported pIC50?
Response given: < 5.70

###

System: NCI-H661;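 further: cell viability assay read-out, IC50 being the concentration that inhibits growth of the cells by half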
assayComment: cells
Format: functional, cell-based
measurementContext: Homo sapiens
Description: SANGER: Inhibition of human NCI-H661 cell growth in a cell viability assay.
Provide the reported IC50 of each item.

Reference set, count: 2
NC1(c2ccc(-c3nc4ccn5c(=O)[nH]nc5c4cc3-c3ccccc3)cc2)CCC1 [MK-2206]: > 4 µM
O=S(=O)(O)c1ccc2cc(/N=N/c3cc(S(=O)(=O)O)c4cccnc4c3O)ccc2c1: > 16 µM

List reported IC50 for each of these molecules:
1. CC1(C)CCC(c2ccc(Cl)cc2)=C(CN2CCN(c3ccc(C(=O)NS(=O)(=O)c4ccc(N[C@H](CCN5CCOCC5)CSc5ccccc5)c(S(=O)(=O)C(F)(F)F)c4)cc3)CC2)C1 [NAVITOCLAX]
2. Cc1ccc(-n2nc(C(C)(C)C)cc2NC(=O)Nc2ccc(OCCN3CCOCC3)c3ccccc23)cc1 [DORAMAPIMOD]
3. NC(=O)Nc1cc(-c2cccc(F)c2)sc1C(=O)N[C@H]1CCCNC1 [AZD-7762]

Response given:
> 2 µM
> 10 µM
0.637 µM

Challenge: Could you share which IC50 value was measured for COc1ccc(-c2cc3nccn3c(Nc3ncccc3C(N)=O)n2)cc1OC ?
Response given: > 8 µM
